target_or_system: FLT3 (Homo sapiens)
Sequence (P36888 27-993): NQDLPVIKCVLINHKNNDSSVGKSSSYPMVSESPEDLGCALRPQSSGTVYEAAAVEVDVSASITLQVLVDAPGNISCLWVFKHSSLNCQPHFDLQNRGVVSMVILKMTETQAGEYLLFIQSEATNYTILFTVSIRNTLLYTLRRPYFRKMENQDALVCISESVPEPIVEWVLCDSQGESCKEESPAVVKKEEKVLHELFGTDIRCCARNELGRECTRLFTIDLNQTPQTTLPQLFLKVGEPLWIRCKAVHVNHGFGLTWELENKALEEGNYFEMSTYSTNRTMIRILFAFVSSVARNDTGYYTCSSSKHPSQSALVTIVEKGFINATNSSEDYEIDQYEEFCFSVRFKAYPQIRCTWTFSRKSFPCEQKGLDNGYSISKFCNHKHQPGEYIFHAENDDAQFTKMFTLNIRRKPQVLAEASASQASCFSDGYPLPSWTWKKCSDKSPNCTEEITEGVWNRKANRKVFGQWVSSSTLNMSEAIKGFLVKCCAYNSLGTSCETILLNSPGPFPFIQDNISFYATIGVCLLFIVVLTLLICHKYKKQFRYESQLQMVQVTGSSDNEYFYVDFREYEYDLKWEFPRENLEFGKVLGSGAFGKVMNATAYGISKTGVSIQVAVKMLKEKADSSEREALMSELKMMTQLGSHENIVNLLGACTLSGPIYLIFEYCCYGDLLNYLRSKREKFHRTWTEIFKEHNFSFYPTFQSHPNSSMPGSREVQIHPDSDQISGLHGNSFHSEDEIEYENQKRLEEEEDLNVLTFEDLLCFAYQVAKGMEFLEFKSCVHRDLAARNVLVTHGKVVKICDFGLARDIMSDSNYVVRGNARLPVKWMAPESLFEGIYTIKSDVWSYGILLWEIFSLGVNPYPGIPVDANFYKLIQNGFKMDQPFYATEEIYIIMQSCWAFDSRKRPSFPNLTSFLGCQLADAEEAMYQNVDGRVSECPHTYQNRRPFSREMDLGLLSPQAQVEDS
test_method_notes: Reaction Biology NanoBRET target engagement assay in HEK-293 cells, FLT3
quantity_name: pIC50
A value of pIC50 is the negative decimal logarithm of a concentration given in moles per litre.

CC(O)(c1cn2c(-c3ccnc(N[C@@H]4CCCNC4)n3)cnc2cn1)C(F)(F)F (single isomer, unassigned) [Compound 68] ... 6.41

Here's the next entry for you.
(Q) Data request, read-out pIC50, for COc1cc2ncc(-c3cncc(N[C@H]4CNC[C@@H]4F)n3)n2nc1C1CC1 [Compound 22]
(A) 6.49

----------
Reported IC50 by item:
target_or_system: FLT3 (Homo sapiens, UniProt P36888)
test_method_notes: Reaction Biology NanoBRET target engagement assay in HEK-293 cells, FLT3
run_conditions: NanoBRET FLT3 IC50, HEK-293 cells
Could you give me the number in nM? Just the number is fine.

F[C@H]1CCNC[C@@H]1Nc1nccc(-c2cnc3cc(OC4CC4)ccn23)n1 [Compound 39] ... 15
CC(C)Oc1ccn2c(-c3ccnc(N[C@@H]4CCCNC4)n3)cnc2c1 [Compound 26] ... 2
CC(O)(c1cn2c(-c3ccnc(N[C@H]4CNC[C@@H]4F)n3)cnc2cn1)C(F)(F)F (single isomer, unassigned) [Compound 69] ... 1950

Here's the next entry for you.
(Q) Data request, read-out IC50, for COc1cc2ncc(-c3ccnc(N[C@@H]4CCCNC4)n3)n2cc1C(C)(C)O [Compound 44]
(A) 18

----------
target_or_system: FLT3 (Homo sapiens, UniProt P36888)
Sequence (P36888 27-993): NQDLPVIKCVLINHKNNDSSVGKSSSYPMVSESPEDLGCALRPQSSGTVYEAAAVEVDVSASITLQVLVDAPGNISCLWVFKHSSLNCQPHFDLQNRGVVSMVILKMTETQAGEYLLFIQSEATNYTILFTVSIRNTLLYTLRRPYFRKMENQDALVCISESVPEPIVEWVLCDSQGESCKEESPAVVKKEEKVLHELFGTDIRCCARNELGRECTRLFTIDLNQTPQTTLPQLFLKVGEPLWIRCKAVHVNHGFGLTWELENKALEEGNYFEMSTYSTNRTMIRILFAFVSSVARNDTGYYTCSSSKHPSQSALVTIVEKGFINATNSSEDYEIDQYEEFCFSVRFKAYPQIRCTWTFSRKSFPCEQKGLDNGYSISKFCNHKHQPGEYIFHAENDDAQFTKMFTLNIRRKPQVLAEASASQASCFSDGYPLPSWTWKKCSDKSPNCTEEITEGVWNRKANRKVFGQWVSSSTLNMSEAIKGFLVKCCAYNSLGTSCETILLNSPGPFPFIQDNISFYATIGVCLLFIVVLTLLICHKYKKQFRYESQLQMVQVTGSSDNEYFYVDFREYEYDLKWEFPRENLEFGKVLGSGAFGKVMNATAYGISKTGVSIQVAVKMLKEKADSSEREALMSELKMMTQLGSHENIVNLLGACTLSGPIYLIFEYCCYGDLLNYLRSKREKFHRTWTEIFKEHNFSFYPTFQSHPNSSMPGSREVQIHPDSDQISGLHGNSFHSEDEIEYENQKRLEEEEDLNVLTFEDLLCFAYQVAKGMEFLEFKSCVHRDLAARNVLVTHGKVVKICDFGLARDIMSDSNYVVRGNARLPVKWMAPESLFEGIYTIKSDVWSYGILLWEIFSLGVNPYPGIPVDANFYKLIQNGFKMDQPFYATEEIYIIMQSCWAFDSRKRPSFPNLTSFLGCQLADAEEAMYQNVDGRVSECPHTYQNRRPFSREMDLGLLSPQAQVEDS
test_method_notes: Reaction Biology NanoBRET target engagement assay in HEK-293 cells, FLT3
run_conditions: NanoBRET FLT3 IC50, HEK-293 cells
quantity_name: IC50
Answer shape: numeric part, then the unit.

Worked examples, 7 compounds total:
CC(O)(c1cn2c(-c3ccnc(N[C@H]4CNCC[C@@H]4F)n3)cnc2cn1)C(F)(F)F (single isomer, unassigned) [Compound 72] ... 992 nM
CC(C)(O)c1ccc2ncc(-c3ccnc(N[C@H]4CNCC[C@@H]4F)n3)n2c1 [Compound 42] ... 137 nM
COc1cc2ncc(-c3cncc(N[C@H]4CNCC[C@@H]4F)n3)n2cc1C(C)(C)O [Compound 21] ... 159 nM
FC(F)Oc1ccn2c(-c3cncc(N[C@H]4CNCC[C@@H]4F)n3)cnc2c1 [Compound 15] ... 367 nM
F[C@H]1CCNC[C@@H]1Nc1cncc(-c2cnc3cc(OC4CC4)ccn23)n1 [Compound 12] ... 177 nM
COc1ccn2c(-c3ccnc(N[C@H]4CNC[C@@H]4F)n3)cnc2c1 [Compound 28] ... 65 nM
CC(C)Oc1ccn2c(-c3ccnc(N[C@H]4CNC[C@@H]4F)n3)cnc2c1 [Compound 25] ... 34 nM

(Q) Data request, read-out IC50, for COc1cc2ncc(-c3cncc(N[C@H]4CNCC[C@@H]4F)n3)n2nc1C1CC1 [Compound 24]
(A) 19 nM

----------
target_or_system: FLT3 R834Q (Homo sapiens, UniProt P36888, R834Q)
test_method_notes: DiscoverX KINOMEscan competition binding, FLT3 R834Q
Reported pKd by item:
A value of pKd is the negative decimal logarithm of a concentration given in moles per litre.

COc1cc2ncc(-c3ccnc(N[C@H]4CNC[C@@H]4F)n3)n2nc1C1CC1 ... 8.85
COc1cc2ncc(-c3ccnc(N[C@H]4CNCC[C@@H]4F)n3)n2nc1C1CC1 ... 8.96

Here's the next entry for you.
(Q) Which pKd is reported with FLT3 R834Q (Homo sapiens, UniProt P36888, R834Q) for this entry: COc1cc2ncc(-c3cncc(N[C@H]4CNC[C@@H]4F)n3)n2nc1C1CC1 ?
(A) 8.03

----------
target_or_system: IRAK4 (Homo sapiens, UniProt Q9NWZ3)
Sequence (Q9NWZ3 whole entry): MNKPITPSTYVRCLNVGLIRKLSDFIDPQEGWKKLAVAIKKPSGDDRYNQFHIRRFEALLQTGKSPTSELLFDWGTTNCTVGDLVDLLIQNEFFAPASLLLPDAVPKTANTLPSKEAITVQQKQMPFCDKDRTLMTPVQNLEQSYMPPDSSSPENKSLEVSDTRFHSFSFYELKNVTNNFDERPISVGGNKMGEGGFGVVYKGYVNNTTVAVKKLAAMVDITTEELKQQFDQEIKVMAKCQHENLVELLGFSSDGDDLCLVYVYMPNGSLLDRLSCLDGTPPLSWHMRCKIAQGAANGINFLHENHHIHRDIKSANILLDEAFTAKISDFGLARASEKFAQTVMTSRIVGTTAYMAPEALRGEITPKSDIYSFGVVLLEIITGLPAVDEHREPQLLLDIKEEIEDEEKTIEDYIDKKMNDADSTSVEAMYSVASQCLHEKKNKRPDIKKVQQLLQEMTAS
test_method_notes: RBC HotSpot Kinase Assay, IRAK4
run_conditions: IRAK4 IC50
Reported pIC50 by item:
A value of pIC50 is the negative decimal logarithm of a concentration given in moles per litre.

COc1cc2ncc(-c3ccnc(N[C@H]4CNCC[C@@H]4F)n3)n2nc1C1CC1 ... 9.22
COc1cc2ncc(-c3ccnc(N[C@H]4CNC[C@@H]4F)n3)n2nc1C1CC1 ... 9.00
CC(C)Oc1ccn2c(-c3cncc(N[C@@H]4CCCNC4)n3)cnc2c1 ... 8.70
c1cc(-c2cnc3cc(OC4CC4)ccn23)nc(N[C@@H]2CCCNC2)n1 ... 8.22
CC(C)(O)c1ccc2ncc(-c3ccnc(N[C@H]4CNCC[C@@H]4F)n3)n2c1 ... 8.40

(Q) Data request, read-out pIC50, for COc1ccn2c(-c3cncc(N[C@@H]4CCCNC4)n3)cnc2c1
(A) 9.00

(Q) Data request, read-out pIC50, for F[C@H]1CNC[C@@H]1Nc1cncc(-c2cnc3cc(OC4CC4)ccn23)n1
(A) 8.05

(Q) Data request, read-out pIC50, for COc1cc2ncc(-c3cncc(N[C@H]4CNCC[C@@H]4F)n3)n2nc1C1CC1
(A) 9.15
